These measurements were taken from patent US6573293B2.

biological target: HER-2 kinase (Homo sapiens, UniProt P04626); construct: Use EGFr/HER-2 chimera/3T3-C7 cell line for this assay; It is expressed in mouse NIH 3T3 clone C7 cells; P00533 (Epidermal growth factor receptor); assay: Cellular HER-2 kinase assay; conditions: read-out: Her2 Kinase IC50
Sequence (P04626 720-987 limits assumed): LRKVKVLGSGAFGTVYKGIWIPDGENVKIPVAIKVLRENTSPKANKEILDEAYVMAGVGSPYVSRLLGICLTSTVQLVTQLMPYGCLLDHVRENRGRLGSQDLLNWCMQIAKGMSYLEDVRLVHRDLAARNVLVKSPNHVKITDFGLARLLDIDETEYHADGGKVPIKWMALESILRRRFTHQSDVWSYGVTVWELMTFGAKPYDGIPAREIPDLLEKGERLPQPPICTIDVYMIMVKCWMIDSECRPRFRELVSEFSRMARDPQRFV
EXPERIMENTAL READOUT: pIC50
Answers are plain numbers, as −log10 of the molar value.

CCN(CC)CCNC(=O)c1c(C)[nH]c(/C=C2\C(=O)Nc3ccc(S(=O)(=O)N(C)C)cc32)c1C [Example 87]    5.04
CCN(CC)CCCNC(=O)c1[nH]c(/C=C2\C(=O)Nc3ccc(Br)cc32)c(C(=O)c2ccccc2)c1C [Example 21]    4.56
CCN(CC)CCCNC(=O)c1[nH]c(/C=C2\C(=O)Nc3ccc(OC)cc32)cc1C [Example 15]    4.01
COc1ccccc1-c1ccc2c(c1)NC(=O)/C2=C\c1[nH]c(C)c(C(=O)NCCN2CCCC2)c1-c1ccccc1 [Example 43]    4.27
COc1cccc(-c2ccc3c(c2)NC(=O)/C3=C\c2[nH]c(C)c(C(=O)NCCN(C)C)c2C)c1 [Example 55]    4.11
CCN(CC)CCCNC(=O)c1[nH]c(/C=C2\C(=O)Nc3ccc(Br)cc32)c(C(C)=O)c1C [Example 29]    5.40
CCN(CC)CCCNC(=O)c1c(C(C)C)[nH]c(/C=C2\C(=O)Nc3ccc(Br)cc32)c1C(C)C [Example 72]    5.02
CCN(CC)CCCNC(=O)c1c(C(C)C)[nH]c(/C=C2\C(=O)Nc3ccc(Br)cc32)c1-c1ccccc1 [Example 37]    5.85
CCN(CC)CCCNC(=O)c1cc(C)c(/C=C2\C(=O)Nc3ccc(Br)cc32)[nH]1 [Example 7]    5.37
COc1ccccc1-c1ccc2c(c1)NC(=O)/C2=C\c1[nH]c(C)c(C(=O)NCCN(C)C)c1C [Example 54]    5.15

For each of the compounds below, state pIC50.
1. Cc1[nH]c(/C=C2\C(=O)Nc3ccc(Br)cc32)c(-c2ccccc2)c1C(=O)NCCN(C)C [Example 44]
2. CCN(CC)CCNC(=O)c1c(C(C)C)[nH]c(/C=C2\C(=O)Nc3ccc(Br)cc32)c1C(C)C [Example 71]

Return:
[5.16, 5.00]

----------
Consider the following molecules; for each one, report its pIC50.
biological target: EGFR (Homo sapiens); construct: A431 cell lysate (SUGEN, Inc.); host or cells: A431; assay: EGFR bioassay (bio EGF); assay type: biochemical
Sequence (P00533 25-1210): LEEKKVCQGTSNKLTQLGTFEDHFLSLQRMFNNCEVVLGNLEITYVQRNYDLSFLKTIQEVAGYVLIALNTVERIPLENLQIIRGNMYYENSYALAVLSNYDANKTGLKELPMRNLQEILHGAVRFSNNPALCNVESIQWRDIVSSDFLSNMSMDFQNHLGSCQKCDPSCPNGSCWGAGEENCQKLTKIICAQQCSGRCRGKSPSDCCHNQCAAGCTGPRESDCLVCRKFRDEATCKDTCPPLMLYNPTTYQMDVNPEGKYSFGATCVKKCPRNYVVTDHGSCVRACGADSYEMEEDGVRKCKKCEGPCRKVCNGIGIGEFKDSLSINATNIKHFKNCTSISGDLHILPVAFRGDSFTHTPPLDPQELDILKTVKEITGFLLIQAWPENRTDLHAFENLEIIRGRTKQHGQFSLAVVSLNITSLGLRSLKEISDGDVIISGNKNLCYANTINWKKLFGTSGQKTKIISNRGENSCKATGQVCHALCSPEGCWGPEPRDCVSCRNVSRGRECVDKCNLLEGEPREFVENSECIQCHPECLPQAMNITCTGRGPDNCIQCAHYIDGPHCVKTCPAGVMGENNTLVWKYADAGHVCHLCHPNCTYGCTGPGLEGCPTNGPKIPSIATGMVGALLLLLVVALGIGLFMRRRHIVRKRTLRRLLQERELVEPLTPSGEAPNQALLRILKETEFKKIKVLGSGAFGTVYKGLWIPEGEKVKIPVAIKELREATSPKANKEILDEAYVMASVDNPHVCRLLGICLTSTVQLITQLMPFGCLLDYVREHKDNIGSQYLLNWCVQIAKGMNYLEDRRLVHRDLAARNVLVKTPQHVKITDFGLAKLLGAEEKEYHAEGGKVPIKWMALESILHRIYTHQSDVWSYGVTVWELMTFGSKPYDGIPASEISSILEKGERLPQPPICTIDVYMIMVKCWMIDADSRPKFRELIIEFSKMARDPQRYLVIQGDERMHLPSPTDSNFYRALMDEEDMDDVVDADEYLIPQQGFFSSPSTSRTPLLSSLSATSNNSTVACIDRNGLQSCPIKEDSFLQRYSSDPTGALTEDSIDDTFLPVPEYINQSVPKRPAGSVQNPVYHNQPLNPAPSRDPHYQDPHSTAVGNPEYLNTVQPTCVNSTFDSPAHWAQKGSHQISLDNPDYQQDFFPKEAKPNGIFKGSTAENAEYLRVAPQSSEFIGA
One number for each entry, as −log10 of the molar value.

// below: answered molecules
Cc1[nH]c(/C=C2\C(=O)Nc3ccc(Br)cc32)c(C)c1C(=O)NCc1ccncc1 [Example 74]    4.33
Cc1[nH]c(/C=C2\C(=O)Nc3ccc(Br)cc32)c(C)c1C(=O)NCCN(C)C [Example 48]    4.75
Cc1[nH]c(/C=C2\C(=O)Nc3ccc(S(=O)(=O)Nc4ccccc4)cc32)c(C)c1C(=O)N1CCN(C)CC1 [Example 86]    4.38

For each of the molecules below, state pIC50.
1. Cc1c(C(=O)NCCCN2CCCC2)[nH]c(/C=C2\C(=O)Nc3ccccc32)c1C(=O)c1ccccc1 [Example 23]
2. Cc1[nH]c(/C=C2\C(=O)Nc3ccc(S(=O)(=O)Nc4cccc(Cl)c4)cc32)c(C)c1C(=O)NCCN1CCCC1 [Example 83]
3. CC(=O)c1c(/C=C2\C(=O)Nc3ccc(Br)cc32)[nH]c(C(=O)NCCCN2CCOCC2)c1C [Example 31]
4. Cc1cc(C(=O)NCCCN2CCCC2)[nH]c1/C=C1\C(=O)Nc2ccc(Br)cc21 [Example 6]

Return:
1. 4.44
2. 5.66
3. 5.01
4. 5.49

Sure, the documented pIC50 for Cc1[nH]c(/C=C2\C(=O)Nc3cc(-c4cccnc4)ccc32)c(C)c1C(=O)NCCN1CCCC1 [Example 64] is 4.52
